FYI, the data here is from the supplement of paper PMC6555819.

- System: PPARa:RXRa (NR concentration 270 nM, RXRa partner concentration 90 nM)
- Experimental protocol: PBM binding z-score (relative to random genomic background probes); higher = stronger binding; sequences stand for … in GC…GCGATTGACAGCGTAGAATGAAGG
Returns 1 (yes) if the recorded PBM binding z-score is greater than or equal to 2, and 0 (no) otherwise.

{"Chain sequence": "TAGCCTAGGTCATGGGCCAGTCTACCACGCGAAC", "Qualitative label": "1 (yes)"}
{"Chain sequence": "CCTACTGGGCCAAAAAGGTCATTGGTGCCGATAA", "Qualitative label": "1 (yes)"}
{"Chain sequence": "GGAACGAGGGCAAGGTGATAGCAGAGTTTGATGG", "Qualitative label": "0 (no)"}
{"Chain sequence": "CGAGCTAGGTCATCCAGGACAGTGAATACATTGA", "Qualitative label": "1 (yes)"}
{"Chain sequence": "CCTATTAGTTGACCATAAGGGGAACCGAAGCTCG", "Qualitative label": "0 (no)"}
{"Chain sequence": "AATCAAAGTTCATCTAGGTAACGTAAGATATGCT", "Qualitative label": "1 (yes)"}
{"Chain sequence": "GGAAGGAGGGCATTCGAGTTGATAGCATGGCGAT", "Qualitative label": "0 (no)"}
{"Chain sequence": "CCTACTGGGCCAAGGTCATTGGTCAGTCAAAGCA", "Qualitative label": "1 (yes)"}
{"Chain sequence": "ATCGAAAGGTAGACGAGGTGAGTATACACCGTTT", "Qualitative label": "0 (no)"}
{"Chain sequence": "ATCTCTAGGTAACCAGGTTCAGTGAATGCCGAAC", "Qualitative label": "0 (no)"}
{"Chain sequence": "TCATTTAGGTAAACAGGTGAAAGTCCGTAAGTTA", "Qualitative label": "1 (yes)"}
